- Target system: A2A receptor (Homo sapiens)
- Construct: host or cells: HEK-293
- Sequence (P29274 whole entry): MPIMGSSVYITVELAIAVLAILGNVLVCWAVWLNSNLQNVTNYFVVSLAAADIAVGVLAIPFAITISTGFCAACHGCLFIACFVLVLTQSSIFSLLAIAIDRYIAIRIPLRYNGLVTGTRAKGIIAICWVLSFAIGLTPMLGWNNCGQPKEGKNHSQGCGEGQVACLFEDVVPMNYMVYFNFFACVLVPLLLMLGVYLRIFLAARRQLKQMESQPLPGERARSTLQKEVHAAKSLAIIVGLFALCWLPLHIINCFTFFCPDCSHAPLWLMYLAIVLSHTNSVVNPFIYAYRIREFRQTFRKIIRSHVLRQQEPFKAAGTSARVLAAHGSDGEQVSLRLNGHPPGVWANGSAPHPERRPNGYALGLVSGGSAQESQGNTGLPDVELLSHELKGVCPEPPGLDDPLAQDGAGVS
- Test name: A2aR antagonism IC50, cAMP TR-FRET in HEK-293 cells, high concentration of adenosine (30 μM);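 also: compounds added 10 min before adenosine, then 30 min stimulation at room temperature in buffer with 100 µM rolipram and 30 µM EHNA, signal read 1 h after detection reagents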
- Format: cell-based
- Applied conditions: HEK-293 cells expressing A2A receptor; agonist adenosine 30 μM; 2% HSA; inhibition of cAMP; read-out: A2AR IC50 (nM) (@30 μM Adenosine)
Recorded endpoint: IC50 (nM)
The figure you give is taken to be in nM; do not add the unit.

Query string: Bench note: what IC50 did Cc1nn2c(N)c(C#N)c(NCCc3ccn(C4(CO)CC4)n3)nc2c1C [Example 55] show?
Result string: 250

Query string: Can you check CCCc1c(C)nn2c(N)c(C#N)c(NCCc3ccn(C4COCC4CO)n3)nc12 (single isomer, unassigned; (-)) [Example 160b] next?
Result string: 341

Query string: Can you check Cc1nn2c(N)c(C#N)c(NCCc3ccn(CC4CC(O)C4)n3)nc2c1Cl (racemic) [Example 82] next?
Result string: 110

Query string: Can you check CCc1c(C)nn2c(N)c(C#N)c(NCCc3cccc(CNCCOC)n3)nc12 [Example 96] next?
Result string: 456

Query string: Can you check Cc1nn2c(N)c(C#N)c(NCCc3cccc(CCO)n3)nc2c1C [Example 152] next?
Result string: 209

Query string: Can you check CCc1c(C)nn2c(N)c(C#N)c(NCCc3cccc(CO[C@@H]4CCOC4)n3)nc12 [Example 166] next?
Result string: 1420

Query string: Can you check CCc1c(C)nn2c(N)c(C#N)c(NCCc3ccn(C4CCC4CNCC(N)=O)n3)nc12 (stereo not shown) [Example 134] next?
Result string: 475

Query string: Can you check CCc1cccc(CCNc2nc3c(C)c(C)nn3c(N)c2C#N)n1 [Example 40] next?
Result string: 260

Query string: Can you check Cc1nn2c(N)c(C#N)c(NCCc3cccc(CO)n3)nc2c1Cl [Example 33] next?
Result string: 206

Query string: Can you check Cc1nn2c(N)c(C#N)c(NCCc3ccn(C4COCC4CO)n3)nc2c1C (single isomer, unassigned; (+)) [Example 133a] next?
Result string: 554

Query string: Can you check CCc1c(C)nn2c(N)c(C#N)c(NCCc3cccc(C(C)O)n3)nc12 (single isomer, unassigned; (+)) [Example 159a] next?
Result string: 139

Query string: Can you check CCc1cnn2c(N)c(C#N)c(NCCc3cc(C)n(C4(CO)CC4)n3)nc12 [Example 80] next?
Result string: 83

Query string: Can you check CCc1c(C)nn2c(N)c(C#N)c(NCCc3ccn(C4(CCO)CC4)n3)nc12 [Example 124] next?
Result string: 126

Query string: Can you check CCc1c(C)nn2c(N)c(C#N)c(NCCc3ccn(C4(CCNC(C)=O)CC4)n3)nc12 [Example 149] next?
Result string: 43

Query string: Can you check CCc1c(C)nn2c(N)c(C#N)c(NCCc3ccn(C4(CNCC[S+](C)[O-])CC4)n3)nc12 (single isomer, unassigned; (+)) [Example 163b] next?
Result string: 82

Query string: Can you check Cc1nn2c(N)c(C#N)c(NCCc3ccn(C4(CCN)CC4)n3)nc2c1Cl [Example 151] next?
Result string: 95
